Tested on: SK-MEL-5
TEST_NAME: NCI tumour cell line growth inhibition, 48 h
Active and inactive are the calls of the source. No stated cut-off is given here; in the data, active = GI50 up to about 1.1 µM and inactive = higher.

COMPOUND | GI50
COC(=O)C1=C(C(=O)OC)C2(C)OC1C(=O)C21CC1 (stereo not given) | > 100 µM (inactive)
O=CC1OC(=O)c2cc(O)c(O)c(O)c2-c2c(cc(O)c(O)c2O)C(=O)OC1C1OC(=O)c2cc(O)c(O)c(O)c2-c2c(O)c(O)c3oc(=O)c4c(c(O)c(O)c5oc(=O)c2c3c54)-c2c(cc(O)c(O)c2O)C(=O)OCC1O (stereo not given) | 18.2 µM (inactive)
C[N+]1(C)CN(c2ccccc2)C2(CCN(CCCC(=O)c3cccs3)CC2)C1=O | 28.1 µM (inactive)
COc1ccc(C(=O)c2sc(N(C)C)nc2-c2ccccc2)cc1 | 34 µM (inactive)
CN(C)c1cccc2c1C(=O)C=CC21CCc2ccc(N(C)C)c3c(N(C)C)ccc1c23 (stereo not given) | 16.3 µM (inactive)

====

Test system: SW-620
TEST_NAME: NCI tumour cell line growth inhibition, 48 h
Calls of active or inactive are those of the source. Cut-off read from the data, not from the text of the source: active = GI50 up to about 1.1 µM and inactive = higher.
Outcomes: active, inactive

COMPOUND | ASSIGNED_LABEL
CC(C)(C)N/C(N)=N/C#N | inactive
CNC(=O)c1cccc2c(Nc3ccc(NS(C)(=O)=O)cc3OC)c3cccc(C)c3nc12 | active
COc1ccccc1N1C(=O)/C(=C\c2cccc(Oc3ccccc3)c2)SC1c1ccccc1 (stereo unspecified) | inactive
CC(=O)OC1CC2C(C)(C)C(=O)C=C[C@]2(C)C2CCC3(C)C(c4ccoc4)C(=O)C4OC43[C@]12C (stereo partly specified) | inactive
O=C(NCCCCCCCN1CCCCCCC1)C(C1CCCCC1)C1CCCCC1 | inactive
CCCCCN(CCCCC)C(=O)[C@H](CCC(=O)OCc1ccccc1)NC(=O)c1cc2ccccc2[nH]1 | inactive
COc1cc(C2(C)SCCCS2)c(I)c(OC)c1OC | inactive
O=c1cc(N2CCCC2)[nH]c(=O)n1-c1ccc(Cl)cc1 | inactive
CC(C)N(C)C(=O)C12C3C4C1C1C2C3C41C#N (stereo unspecified) | inactive
O=C1C2c3[nH]c4ccccc4c3C3CCSCC3C2C(=O)N1c1ccccc1 (stereo unspecified) | inactive
O=C1C2C3SC(c4cc5ccccc5cc43)C2C(=O)N1c1ccccc1 (stereo unspecified) | inactive

====

System: SK-MEL-28
TEST_NAME: NCI tumour cell line growth inhibition, 48 h
The source made the active and inactive calls. Rule as the data show it: active = GI50 up to about 1.1 µM and inactive = higher.
Entries annotated with measured GI50

COMPOUND | GI50
O=CC1OC(=O)c2cc(O)c(O)c(O)c2-c2c(cc(O)c(O)c2O)C(=O)OC1C1OC(=O)c2cc(O)c(O)c(O)c2-c2c(O)c(O)c3oc(=O)c4c(c(O)c(O)c5oc(=O)c2c3c54)-c2c(cc(O)c(O)c2O)C(=O)OCC1O (centres undefined) | > 100 µM (inactive)
CN(C)c1cccc2c1C(=O)C=CC21CCc2ccc(N(C)C)c3c(N(C)C)ccc1c23 (centres undefined) | 15.4 µM (inactive)
CCC1C(=O)OCc2c1cc1n(c2=O)CCC12OCCO2 (centres undefined) | > 100 µM (inactive)
CCN(CC)CCC(=O)/C=C/c1ccccc1 | 15.2 µM (inactive)
C[N+](C)(C)CC(=O)N/N=C(\C(=O)NC1=C(Cl)C(=O)c2ccccc2C1=O)C(C#N)c1csc(-c2ccc([N+](=O)[O-])cc2)n1 (centres undefined) | > 100 µM (inactive)
Nc1ccc2c(c1)C1=NNC(=O)CC1C2 (centres undefined) | > 100 µM (inactive)
N#CC(C(=O)C(=O)NCCCNC(=O)C(=O)C(C#N)c1ccccc1)c1ccccc1 (centres undefined) | > 100 µM (inactive)
Cc1ccc(C(O)/C(=N/N)c2nc3ccc([N+](=O)[O-])cc3nc2O)cc1 (centres undefined) | > 100 µM (inactive)
Cc1ccc(S(=O)(=O)NCCCSCCN)cc1 | > 100 µM (inactive)

====

System: MDA-N
TEST_NAME: NCI tumour cell line growth inhibition, 48 h
Active and inactive are the calls of the source. Rule as the data show it: active = GI50 up to about 1.1 µM and inactive = higher.
Possible outcomes: active, inactive

CHEM_SMILES | ASSIGNED_LABEL
CC[C@@]1(O)C(=O)OCc2c1cc1n(c2=O)Cc2c-1nc1ccc(O)cc1c2[Si](C)(C)C(C)(C)C | active
Oc1ccc(-c2nc(-c3cccnc3)c(-c3ccc(F)cc3)[nH]2)cc1 | inactive
COc1nc2ncc([C@@H](O)[C@H](O)CO)nc2c(=O)n1C | inactive
CC(C)=CCOc1cc(NC(=S)c2ccsc2C)ccc1Cl | inactive
CN(Cc1c2ccccc2cc2ccccc12)S(=O)(=O)c1ccc(-c2c3nc(c(-c4ccc(S(=O)(=O)N(C)Cc5c6ccccc6cc6ccccc56)cc4)c4ccc([nH]4)c(-c4ccc(S(=O)(=O)N(C)Cc5c6ccccc6cc6ccccc56)cc4)c4nc(c(-c5ccc(S(=O)(=O)N(C)Cc6c7ccccc7cc7ccccc67)cc5)c5ccc2[nH]5)C=C4)C=C3)cc1 | inactive
Cc1cc(S(=O)(=O)NC2=NCc3nc4ccccc4n32)c(S)cc1Cl | inactive
COc1ccc(-c2cc(=O)c3c(OC)c(OC)c(OC)c(OC)c3o2)c(OC)c1 | inactive
O=C(Nc1ccccc1Cl)c1cc(S(=O)(=O)Nc2n[nH]c(=O)n2-c2ccccc2)c(S)cc1Cl | inactive
COc1ccc(C(=O)c2sc(N(C)C)nc2-c2ccccc2)cc1 | inactive

====

System: SF-539
TEST_NAME: NCI tumour cell line growth inhibition, 48 h
The source made the active and inactive calls. Rule as the data show it: active = GI50 up to about 1.1 µM and inactive = higher.
Labels: 1.0 = active, 0.0 = inactive

COMPOUND | TESTED_ON | ASSIGNED_LABEL
COC(=O)C(CC(=O)Nc1ccc(C)cc1)C(=O)C(=O)Nc1c(C(C)C)cccc1C(C)C (stereo not drawn) | SF-539 | 0.0
CC(C)(C)OC(=O)C(C1NC(C(=O)O)C(C)(C)S1)N1C(=O)c2ccccc2C1=O (stereo not drawn) | SF-539 | 0.0
Cc1ccc(S(=O)(=O)N/N=C2\C3CC4CC(C3)C2C4)cc1 (stereo not drawn) | SF-539 | 0.0
COc1ccc(/N=N/C(=N/NC(=O)c2ccccc2)c2ccc(N(CCC#N)CCC#N)cc2C)cc1 | SF-539 | 0.0
CC1=CC(C/C(C)=C/COc2ccc3ccc(=O)oc3c2)OC1=O (stereo not drawn) | SF-539 | 0.0
O=[N+]([O-])c1ccc(NSc2ccccc2)cc1 | SF-539 | 0.0
CCOC(=O)C1C(c2ccco2)C2(C#N)C(=N)OC1(C)C2(C#N)C#N (stereo not drawn) | SF-539 | 0.0
c1ccc(-c2cc(-c3cc(-c4ccccc4)n(-c4ccccc4)n3)nn2-c2ccccc2)cc1 | SF-539 | 0.0
O=c1c2cnccc2cc2c3ccccc3ccn12 | SF-539 | 0.0
COC(=O)C(C(=O)C(=O)Nc1cccc([N+](=O)[O-])c1)c1nc2ccc([N+](=O)[O-])cc2nc1O (stereo not drawn) | SF-539 | 0.0
CC(=O)ONC(C(=O)C(C)(C)C)C(=O)C(C)(C)C | SF-539 | 0.0
CC(C)(C)OC(=O)NCCNCCNc1ccccc1 | SF-539 | 0.0
O=C1Nc2ccccc2/C1=N/NC(=S)N1CCCCC1 | SF-539 | 1.0
COC(=O)N/N=C(\C)CC(=O)Nc1cccc([N+](=O)[O-])c1 | SF-539 | 0.0
C/C(Nc1ccc(F)cc1)=C1/CCOC1=O | SF-539 | 0.0
O=C1c2cc3c(cc2CC12Cc1ccc4c(c1C2=O)CCC4)CCCC3 (stereo not drawn) | SF-539 | 0.0
COC(=O)/C=C(/C=C1/C(C#N)=C(N)N(c2ccc(Cl)cc2)C1(C)/C(=C\C(=O)OC)C(=O)OC)C(=O)OC (stereo not drawn) | SF-539 | 0.0
O=C(Cc1nc2ccccc2c(=O)n1-c1ccccc1Cl)c1ccncc1 | SF-539 | 0.0
CC(=O)OCC1OC(OC2C(CSC3OC(COC(C)=O)C(OC(C)=O)C(OC(C)=O)C3OC(C)=O)OC(OC(C)=O)C(OC(C)=O)C2OC(C)=O)C(OC(C)=O)C(OC(C)=O)C1OC(C)=O (stereo not drawn) | SF-539 | 0.0
c1ccc(COC[C@H]2C3OCC([C@H](OCc4ccccc4)[C@H]3OCc3ccccc3)N2Cc2ccccc2)cc1 (stereo partly drawn) | SF-539 | 0.0
O=C(Cc1nc2ccccc2s1)C(=O)Nc1ccc(Cl)cc1Cl | SF-539 | 0.0
Cc1c(Cc2ccccc2)n(COCCCO)c(=O)[nH]c1=O | SF-539 | 0.0
COc1c(-c2ccc(F)cc2)oc2cc(O)cc(O)c2c1=O | SF-539 | 0.0
O=C(N/N=C(/CCN1CCCC1)CC(c1ccccc1)c1c(O)c2ccccc2oc1=O)c1ccncc1 (stereo not drawn) | SF-539 | 0.0
CCOC(=O)C1=C(NC(C)(C)C)OC/C1=N\NC(=O)Cc1ccccc1 | SF-539 | 0.0
CCCCCCCCCCCCCCCCCCNc1ccn(C2OC(CO)C(OP(=O)(O)OCC(O)COP(=O)(O)OCC3OC(n4cc(F)c(NCCCCCCCCCCCCCCCCCC)nc4=O)CC3O)C2O)c(=O)n1 (stereo not drawn) | SF-539 | 0.0
O=C(O)/C(=C/C=C/c1ccccc1)c1csc(-c2nc(/C(=C\C=C\c3ccccc3)C(=O)O)cs2)n1 | SF-539 | 0.0
CC[C@@H]1CC[C@@H]2[C@H](CC[C@]3(C)[C@@H](OS(=O)(=O)c4ccc(C)cc4)CC[C@@H]23)[C@H]1CO | SF-539 | 0.0
Cc1cc2nc3c(C(O)CO)nn(-c4ccccc4)c3nc2cc1C (stereo not drawn) | SF-539 | 0.0
COc1ccc2c(c1)-c1[nH]c3ccc(OC)cc3c1CC2 | SF-539 | 0.0
CN(Cc1cnc2nc(N)nc(N)c2n1)c1ccc(C(=O)NCCCS(=O)(=O)O)cc1 | SF-539 | 0.0
N/N=C1\CCCc2c1no[n+]2[O-] | SF-539 | 0.0
CCOC(=O)C1=C(O)C(=O)c2ccsc2C1=O | SF-539 | 0.0
CC(C)=CCC/C(C)=C/CC/C(C)=C/CSc1ccc(Cl)cc1C(=O)O | SF-539 | 0.0
COc1cc(C2SC(=N)Nc3c2c(C)nn3C(=O)Cc2ccccc2)cc(OC)c1OC (stereo not drawn) | SF-539 | 0.0
Cc1ccc(C(O)(c2ccc(C)cc2)c2ccccn2)cc1 | SF-539 | 0.0
CCCCCN(CCCCC)C(=O)[C@H](CCC(=O)OCc1ccccc1)NC(=O)c1cc2ccccc2[nH]1 | SF-539 | 0.0
CSCC[C@H](NC(=O)[C@H](CC(C)C)NC(=O)[C@@H](Cc1ccccc1)NC(=O)CNC(=O)[C@@H](NC(=O)[C@H](C)NC(=O)[C@H](Cc1c[nH]c2ccccc12)NC(=O)[C@H](CCC(N)=O)NC(=O)[C@H](N)CC(N)=O)C(C)C)C(N)=O | SF-539 | 0.0
